PROTOCOL_DESCRIPTION: Apparent volume of distribution during terminal phase in healthy human subjects at 8 mg/kg, iv administered as 30 mins infusion every 24 hrs measured on day 1
Assay type: ADME, organism-based
Set-up: dose 8 mg/kg, route intravenous
STUDY_CONDITIONS: in vivo

| SMI | Vd [L/kg] |
| --- | --- |
| CCCCCCCCCC(=O)N[C@@H](Cc1c[nH]c2ccccc12)C(=O)N[C@H](CC(N)=O)C(=O)N[C@@H](CC(=O)O)C(=O)N[C@@H]1C(=O)NCC(=O)N[C@@H](CCCN)C(=O)N[C@@H](CC(=O)O)C(=O)N[C@H](C)C(=O)N[C@@H](CC(=O)O)C(=O)NCC(=O)N[C@H](CO)C(=O)N[C@@H]([C@H](C)CC(=O)O)C(=O)N[C@@H](CC(=O)c2ccccc2N)C(=O)O[C@@H]1C | 0.103 |

----------
PROTOCOL_DESCRIPTION: Mean residence time in adult human subjects at 6 mg/kg, iv administered as single dose 30 mins infusion
Type: ADME, organism-based
Design: dose 6 mg/kg, route intravenous
STUDY_CONDITIONS: in vivo

| SMI | MRT |
| --- | --- |
| CCCCCCCCCC(=O)N[C@@H](Cc1c[nH]c2ccccc12)C(=O)N[C@H](CC(N)=O)C(=O)N[C@@H](CC(=O)O)C(=O)N[C@@H]1C(=O)NCC(=O)N[C@@H](CCCN)C(=O)N[C@@H](CC(=O)O)C(=O)N[C@H](C)C(=O)N[C@@H](CC(=O)O)C(=O)NCC(=O)N[C@H](CO)C(=O)N[C@@H]([C@H](C)CC(=O)O)C(=O)N[C@@H](CC(=O)c2ccccc2N)C(=O)O[C@@H]1C | 12.4 h |

----------
PROTOCOL_DESCRIPTION: Cmax in healthy human at 4 mg/kg, iv administered as single dose 30 mins infusion
Assay type: ADME, organism-based
Design: dose 4 mg/kg, route intravenous
STUDY_CONDITIONS: in vivo

| SMI | Cmax [µg/mL] |
| --- | --- |
| CCCCCCCCCC(=O)N[C@@H](Cc1c[nH]c2ccccc12)C(=O)N[C@H](CC(N)=O)C(=O)N[C@@H](CC(=O)O)C(=O)N[C@@H]1C(=O)NCC(=O)N[C@@H](CCCN)C(=O)N[C@@H](CC(=O)O)C(=O)N[C@H](C)C(=O)N[C@@H](CC(=O)O)C(=O)NCC(=O)N[C@H](CO)C(=O)N[C@@H]([C@H](C)CC(=O)O)C(=O)N[C@@H](CC(=O)c2ccccc2N)C(=O)O[C@@H]1C | 77.5 |

----------
PROTOCOL_DESCRIPTION: Apparent volume of distribution during terminal phase in healthy human at 8 mg/kg, iv administered as 30 mins infusion every 24 hrs measured on day 14
Type: ADME, organism-based
Parameters: dose 8 mg/kg, route intravenous
STUDY_CONDITIONS: in vivo

| SMI | READOUT_UNITS | Vd |
| --- | --- | --- |
| CCCCCCCCCC(=O)N[C@@H](Cc1c[nH]c2ccccc12)C(=O)N[C@H](CC(N)=O)C(=O)N[C@@H](CC(=O)O)C(=O)N[C@@H]1C(=O)NCC(=O)N[C@@H](CCCN)C(=O)N[C@@H](CC(=O)O)C(=O)N[C@H](C)C(=O)N[C@@H](CC(=O)O)C(=O)NCC(=O)N[C@H](CO)C(=O)N[C@@H]([C@H](C)CC(=O)O)C(=O)N[C@@H](CC(=O)c2ccccc2N)C(=O)O[C@@H]1C | L/kg | 0.095 |

----------
PROTOCOL_DESCRIPTION: Volume of distribution at steady state in old healthy human at 4 mg/kg, iv administered as single dose 30 mins infusion
Assay type: ADME, organism-based
Design: dose 4 mg/kg, route intravenous
STUDY_CONDITIONS: in vivo, read-out: Vdss
READOUT_KIND: Vd (L/kg)

| SMI | READOUT_KIND | ASSAY_RESULT |
| --- | --- | --- |
| CCCCCCCCCC(=O)N[C@@H](Cc1c[nH]c2ccccc12)C(=O)N[C@H](CC(N)=O)C(=O)N[C@@H](CC(=O)O)C(=O)N[C@@H]1C(=O)NCC(=O)N[C@@H](CCCN)C(=O)N[C@@H](CC(=O)O)C(=O)N[C@H](C)C(=O)N[C@@H](CC(=O)O)C(=O)NCC(=O)N[C@H](CO)C(=O)N[C@@H]([C@H](C)CC(=O)O)C(=O)N[C@@H](CC(=O)c2ccccc2N)C(=O)O[C@@H]1C | Vd | 0.15 |

----------
PROTOCOL_DESCRIPTION: Clearance in healthy human subjects at 8 mg/kg, iv administered as 30 mins infusion every 24 hrs measured on day 1
Type: ADME, organism-based
Set-up: dose 8 mg/kg, route intravenous
STUDY_CONDITIONS: in vivo

| SMI | clearance |
| --- | --- |
| CCCCCCCCCC(=O)N[C@@H](Cc1c[nH]c2ccccc12)C(=O)N[C@H](CC(N)=O)C(=O)N[C@@H](CC(=O)O)C(=O)N[C@@H]1C(=O)NCC(=O)N[C@@H](CCCN)C(=O)N[C@@H](CC(=O)O)C(=O)N[C@H](C)C(=O)N[C@@H](CC(=O)O)C(=O)NCC(=O)N[C@H](CO)C(=O)N[C@@H]([C@H](C)CC(=O)O)C(=O)N[C@@H](CC(=O)c2ccccc2N)C(=O)O[C@@H]1C | 0.168 mL/min/kg |

----------
PROTOCOL_DESCRIPTION: Volume of distribution at steady state in nonobese human subjects at 4 mg/kg, iv administered as single dose 30 mins infusion
Assay type: ADME, organism-based
Set-up: dose 4 mg/kg, route intravenous
STUDY_CONDITIONS: in vivo, read-out: Vdss
READOUT_KIND: Vd

| SMI | READOUT_KIND | ASSAY_RESULT |
| --- | --- | --- |
| CCCCCCCCCC(=O)N[C@@H](Cc1c[nH]c2ccccc12)C(=O)N[C@H](CC(N)=O)C(=O)N[C@@H](CC(=O)O)C(=O)N[C@@H]1C(=O)NCC(=O)N[C@@H](CCCN)C(=O)N[C@@H](CC(=O)O)C(=O)N[C@H](C)C(=O)N[C@@H](CC(=O)O)C(=O)NCC(=O)N[C@H](CO)C(=O)N[C@@H]([C@H](C)CC(=O)O)C(=O)N[C@@H](CC(=O)c2ccccc2N)C(=O)O[C@@H]1C | Vd | 0.13 L/kg |

----------
PROTOCOL_DESCRIPTION: Half life in healthy human subjects at 10 mg/kg, iv administered as 30 mins infusion every 24 hrs measured on day 4
Assay type: ADME, organism-based
Set-up: dose 10 mg/kg, route intravenous
STUDY_CONDITIONS: in vivo

| SMI | half-life |
| --- | --- |
| CCCCCCCCCC(=O)N[C@@H](Cc1c[nH]c2ccccc12)C(=O)N[C@H](CC(N)=O)C(=O)N[C@@H](CC(=O)O)C(=O)N[C@@H]1C(=O)NCC(=O)N[C@@H](CCCN)C(=O)N[C@@H](CC(=O)O)C(=O)N[C@H](C)C(=O)N[C@@H](CC(=O)O)C(=O)NCC(=O)N[C@H](CO)C(=O)N[C@@H]([C@H](C)CC(=O)O)C(=O)N[C@@H](CC(=O)c2ccccc2N)C(=O)O[C@@H]1C | 7.9 h |

----------
PROTOCOL_DESCRIPTION: Volume of distribution at steady state in young healthy human at 4 mg/kg, iv administered as single dose 30 mins infusion
Format: ADME, organism-based
Set-up: dose 4 mg/kg, route intravenous
STUDY_CONDITIONS: in vivo, read-out: Vdss
READOUT_KIND: Vd (L/kg)

| SMI | READOUT_UNITS | ASSAY_RESULT |
| --- | --- | --- |
| CCCCCCCCCC(=O)N[C@@H](Cc1c[nH]c2ccccc12)C(=O)N[C@H](CC(N)=O)C(=O)N[C@@H](CC(=O)O)C(=O)N[C@@H]1C(=O)NCC(=O)N[C@@H](CCCN)C(=O)N[C@@H](CC(=O)O)C(=O)N[C@H](C)C(=O)N[C@@H](CC(=O)O)C(=O)NCC(=O)N[C@H](CO)C(=O)N[C@@H]([C@H](C)CC(=O)O)C(=O)N[C@@H](CC(=O)c2ccccc2N)C(=O)O[C@@H]1C | L/kg | 0.14 |

----------
PROTOCOL_DESCRIPTION: Cmax in healthy human at 4 mg/kg, iv administered as 30 mins infusion every 24 hrs measured on day 1
Format: ADME, organism-based
Design: dose 4 mg/kg, route intravenous
STUDY_CONDITIONS: in vivo

| SMI | Cmax (µg/mL) |
| --- | --- |
| CCCCCCCCCC(=O)N[C@@H](Cc1c[nH]c2ccccc12)C(=O)N[C@H](CC(N)=O)C(=O)N[C@@H](CC(=O)O)C(=O)N[C@@H]1C(=O)NCC(=O)N[C@@H](CCCN)C(=O)N[C@@H](CC(=O)O)C(=O)N[C@H](C)C(=O)N[C@@H](CC(=O)O)C(=O)NCC(=O)N[C@H](CO)C(=O)N[C@@H]([C@H](C)CC(=O)O)C(=O)N[C@@H](CC(=O)c2ccccc2N)C(=O)O[C@@H]1C | 54.6 |

Data credit: ChEMBL document CHEMBL1649119
